Molecular target: 26S proteasome non-ATPase regulatory subunit 14 (Homo sapiens)
Sequence (O00487 whole entry): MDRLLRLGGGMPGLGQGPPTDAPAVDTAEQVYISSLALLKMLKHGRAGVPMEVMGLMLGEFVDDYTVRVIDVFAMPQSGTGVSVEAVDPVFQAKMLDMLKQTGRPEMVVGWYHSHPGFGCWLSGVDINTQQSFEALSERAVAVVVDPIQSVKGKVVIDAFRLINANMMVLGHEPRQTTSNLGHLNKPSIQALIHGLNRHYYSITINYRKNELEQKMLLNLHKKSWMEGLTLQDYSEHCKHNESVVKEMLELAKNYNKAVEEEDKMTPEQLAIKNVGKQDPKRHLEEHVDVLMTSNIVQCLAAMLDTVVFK
Test: inhibition of proteasome subunit RPN11 – biochemical, fluorescence polarization, uHTS hits, confirmation (AID 602368)
Format: functional
The source made the active and inactive calls. How the calls were made is not given here.
readout: IC50

For the compound CN(CC(=O)Nc1ccc(Cl)cc1)C(=O)CCc1nc(O)c2c3c(sc2n1)CCCC3 , what IC50 is on record?
30.7 µM (active)

Moving on to the next compound: O=C(Nc1ccc(-c2nc3ccccc3s2)c(O)c1)C1=COCCO1
22.5 µM (active)

Moving on to the next compound: Cc1ccc(/C=C(\C#N)C(=O)Nc2c(C)cccc2C)s1
13.5 µM (active)

Moving on to the next compound: COc1ccc(C(=O)N2C(=S)NC(=O)/C2=C\c2ccc(C)cc2)cc1
22.5 µM (active)

Moving on to the next compound: Cc1c(OCC(N)=O)ccc2c(-c3ccccc3)cc(=O)oc12
57.7 µM (active)

Moving on to the next compound: COc1ccc(/N=C\c2oc3ccc4ccccc4c3c2O)cc1
10 µM (active)

Each recorded value in this set is attributed to ChEMBL document CHEMBL1201862.
